Attribution: patent US20190031618A1

# Study system: Human CB1R (Cannabinoid receptor 1) (Homo sapiens)
# Sequence (P21554 whole entry): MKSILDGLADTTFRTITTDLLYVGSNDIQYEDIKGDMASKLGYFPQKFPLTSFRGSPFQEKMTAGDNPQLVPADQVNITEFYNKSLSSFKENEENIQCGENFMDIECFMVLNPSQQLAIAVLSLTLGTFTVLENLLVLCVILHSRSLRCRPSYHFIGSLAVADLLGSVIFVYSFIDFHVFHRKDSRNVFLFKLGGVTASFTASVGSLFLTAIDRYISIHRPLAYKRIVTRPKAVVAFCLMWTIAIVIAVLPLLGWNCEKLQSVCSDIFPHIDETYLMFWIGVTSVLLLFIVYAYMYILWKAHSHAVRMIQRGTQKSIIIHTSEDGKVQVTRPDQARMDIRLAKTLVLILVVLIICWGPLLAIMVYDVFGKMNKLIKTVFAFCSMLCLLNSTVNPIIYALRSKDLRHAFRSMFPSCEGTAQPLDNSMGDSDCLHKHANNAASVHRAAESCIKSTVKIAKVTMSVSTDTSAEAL
# Measurement notes: CB-1 in vitro cAMP (HTRF) assay
# Assay type: cell-based
# Condition set: HEK cells, cAMP HTRF, 250 nM forskolin; mean where tested more than once; read-out: CB1 HEK_cAMP EC50
Below, each entry is listed with its recorded EC50.

Compound: CC(Cc1ccc(Cl)cc1)n1c(C(F)F)nc2ccc(C(c3ccc(Cl)cc3)c3nccs3)cc21 (centres unmarked)
EC50: 379 nM
//
Compound: O=C(O)CCC(=O)N1CCC(n2c(C3CC3)nc3ccc(C(c4ccc(Cl)cc4)c4ccc(Cl)cc4)cc32)CC1
EC50: 1030 nM
//
Compound: CCOC(=O)N1CCC(n2c(-c3ccc(Cl)cc3)nc3ccc(C(c4ccc(Cl)cc4)c4nccs4)cc32)CC1 (centres unmarked) [Example 418]
EC50: 1080 nM
//
Compound: NS(=O)(=O)c1ccc(C(=O)N2CCC(n3c(C4CC4)nc4ccc(C(c5ccc(Cl)cc5)c5ccc(Cl)cc5)cc43)CC2)cc1
EC50: 91.9 nM
//
Compound: C=C(CO)c1nc2ccc(C(c3ccc(Cl)cc3)c3ccc(Cl)cc3)cc2n1C1CCN(S(=O)(=O)C(F)(F)F)CC1
EC50: 98 nM
//
Compound: CCOC(=O)COc1cccc(Cn2c(C3CC3)nc3ccc(C(c4ccc(Cl)cc4)c4ccc(Cl)cc4)cc32)c1
EC50: 15.2 nM
//
Compound: O=C(O)c1ccc(CN2CCC(n3c(C4CC4)nc4ccc(C(c5ccc(Cl)cc5)c5ccc(Cl)cc5)cc43)CC2)o1
EC50: 19.8 nM
//
Compound: NC(=O)c1ccc(CN2CCC(n3c(C4CC4)nc4ccc(C(c5ccc(Cl)cc5)c5ccc(Cl)cc5)cc43)CC2)nc1
EC50: 4.9 nM
//
Compound: O=C(O)[C@H]1CC[C@H](n2c(C3CC3)nc3ccc(C(c4ccc(Cl)cc4)c4ccc(Cl)cc4)cc32)CC1
EC50: 4340 nM
//
Compound: CCc1nc2ccc(C(c3ccc(Cl)cc3)c3nccs3)cc2n1-c1cccc(Cl)c1 (centres unmarked)
EC50: 22.7 nM
//
Compound: Cc1nc2ccc(C(c3ccc(Cl)cc3)c3nccs3)cc2n1-c1cccc(Cl)c1 (centres unmarked)
EC50: 473 nM
//
Compound: O=C(NCCO)c1cccc(S(=O)(=O)N2CCC(n3c(C4CC4)nc4ccc(C(c5ccc(Cl)cc5)c5ccc(Cl)cc5)cc43)CC2)c1
EC50: 36.7 nM
//
Compound: NC(=O)c1csc(CN2CCC(n3c(C4CC4)nc4ccc(C(c5ccc(Cl)cc5)c5ccc(Cl)cc5)cc43)CC2)c1
EC50: 5 nM
//
Compound: O=C(O)c1cccc(S(=O)(=O)N[C@H]2CC[C@H](n3c(C4CC4)nc4ccc(C(c5ccc(Cl)cc5)c5ccc(Cl)cc5)cc43)CC2)c1
EC50: 89 nM
